Values were extracted from patent US9346815B2.

- Test system: JAK1-dependent STAT6 phosphorylation downstream of IL-13 stimulation in BEAS-2B human bronchial epithelial cells
- ASSAY EXPLANATION: JAK1 pathway assay in BEAS-2B cells (IL-13-pSTAT6, MSD)
- Format: cell-based
- APPLIED CONDITIONS: read-out: IL13-pSTAT6 EC50 (uM)_BEAS-2B
I'd appreciate it if you could supply EC50 values for the items below.
The reply should be a number in µM, with the unit left off.

Problem: # return recorded EC50 for entry `O=C(Nc1cn(CC(=O)N2CCC(N(CCC(F)(F)F)Cc3ccccc3)CC2)nc1-c1cc(Cl)ccc1OC(F)F)c1cnn2cccnc12`
Result: 0.303

Problem: # return recorded EC50 for entry `CN(CC1(C)OCCO1)C1CCN(C(=O)Cn2cc(NC(=O)c3cnn4cccnc34)c(-c3cc(Cl)ccc3OC(F)F)n2)CC1`
Result: 0.015

Problem: # return recorded EC50 for entry `CN1CC[C@@H]2[C@@H](CCN2C(=O)Cn2cc(NC(=O)c3cnn4cccnc34)c(-c3cc(Cl)ccc3OC(F)F)n2)C1`
Result: 0.0245
